# target.system: Cytochrome P450 2C19 (Homo sapiens)
# assay.explanation: blockers of cytochrome P450 2C19 activity – biochemical, luminescence, ADME assay, primary screen (AID 778);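 also: plate controls were negative control wells for no effect and 2.5 mM tranylcypromine positive control for full effect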
# applied.conditions: CYP2C19 Supersomes, luciferin-H EGE luminescence, 30 min; at 5 µM; active compounds read high
The campaign covered roughly 96,000 compounds. About 20,000 (21%) were called active. A selection follows.
Satisfied means recorded inhibition is 30% or above; Not satisfied means it is below 30%.

Answered cases to consult:
# compound, label.class
records = [
    ("CCN(Cc1cc2cc(C)ccc2[nH]c1=O)S(=O)(=O)c1ccccc1", "Satisfied"),
    ("O=C(Nc1ccccc1-c1nnn(CC(=O)N2CCN(c3ccccc3)CC2)n1)c1cccs1", "Satisfied"),
    ("COc1cccc(C2/C(=C(/O)c3ccc(F)cc3)C(=O)C(=O)N2CCN(C)C)c1 (stereo not given)", "Not satisfied"),
    ("CCCCC(=O)Nc1ccc(C(=O)NCCCn2ccnc2)cc1", "Satisfied"),
]

IN: Does the compound CCCC(=O)Nc1ccc(C(=O)NCCCn2ccnc2)cc1 have recorded inhibition that is 30% or more?
OUT: Satisfied

###

# target.system: Cytochrome P450 2C19 (Homo sapiens) (UniProt P33261)
# Sequence (P33261 whole entry, looked up): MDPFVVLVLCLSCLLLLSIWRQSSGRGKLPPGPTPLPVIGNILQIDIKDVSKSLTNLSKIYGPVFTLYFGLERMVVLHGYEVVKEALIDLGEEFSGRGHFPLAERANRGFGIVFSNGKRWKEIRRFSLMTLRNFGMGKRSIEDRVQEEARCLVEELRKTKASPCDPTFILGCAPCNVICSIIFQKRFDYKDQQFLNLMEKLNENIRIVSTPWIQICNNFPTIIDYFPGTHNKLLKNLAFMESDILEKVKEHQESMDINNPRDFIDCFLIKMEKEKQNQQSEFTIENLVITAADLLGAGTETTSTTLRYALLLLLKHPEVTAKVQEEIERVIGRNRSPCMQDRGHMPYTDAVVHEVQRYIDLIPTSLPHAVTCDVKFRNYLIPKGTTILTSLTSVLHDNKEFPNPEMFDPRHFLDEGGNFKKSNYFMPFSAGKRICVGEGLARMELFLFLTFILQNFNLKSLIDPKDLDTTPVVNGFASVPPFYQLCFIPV
# assay.explanation: blockers of cytochrome P450 2C19 activity – biochemical, luminescence, ADME assay, primary screen (AID 778)
# applied.conditions: CYP2C19 Supersomes, luciferin-H EGE luminescence, 30 min; at 5 µM
Out of some 96,000 compounds screened, about 20,000 (21%) were called active.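 How the source made its calls: active means CYP2C19 inhibition above a set limit at 5 µM in the primary screen (cut at about 50% in these data); inactive means the rest.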 These entries were drawn from the full list.
Choose the fitting class; nothing outside 1 = active, 0 = inactive is accepted.

Use these answered entries as a reference point.
# compound, label.class
rows = [
    ("CCOC(=O)C1C(=O)NCC1c1ccccc1 (stereo unspecified)", 0),
    ("Cc1ccc(CCn2c3c(c4ccccc42)CN(C)CC3)cn1", 0),
    ("O=C(NC1(C(F)(F)F)N=C2SCCN2C1=O)c1ccco1 (stereo unspecified)", 0),
    ("Cc1ccccc1Nc1nnc(C)c(=O)[nH]1", 0),
    ("CCOc1ccc(-c2nc(C)sc2CC(=O)O)cc1", 0),
]

Pending compound:
IN: Returns: the outcome recorded for CCOC(=O)C1=C(C)NC(C)=C(C(=O)OCC)C1c1ccccn1 in this assay.
OUT: 1

###

# target.system: Cytochrome P450 2C19 (Homo sapiens) (UniProt P33261)
# assay.explanation: blockers of cytochrome P450 2C19 activity – biochemical, luminescence, ADME assay, primary screen (AID 778)
# applied.conditions: CYP2C19 Supersomes, luciferin-H EGE luminescence, 30 min; at 5 µM
In all, about 96,000 compounds went through this assay and about 20,000 (21%) were called active.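 How the source made its calls: active means CYP2C19 inhibition above a set limit at 5 µM in the primary screen (cut at about 50% in these data); inactive means the rest.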 Not all results are given here.
I would appreciate it if you answered using one of these outcomes: active, inactive

Record excerpt, results attached:
# molecule, label.class
records = [
    ("O=C(Cn1c(-c2ccc(Cl)cc2)noc1=O)N1CCN(c2ccccc2F)CC1", "inactive"),
    ("COC(=O)CCNc1ccc2c(c1)OCCO2", "inactive"),
    ("CC(=O)c1cccc(NC(=O)c2ccncc2)c1", "active"),
    ("CCCNC(=O)NCc1ccc(N2CCCC2=O)cc1", "inactive"),
    ("COC(=O)CN1C(=O)C(O)=C(C(C)=O)C1c1ccc([N+](=O)[O-])cc1 (centres undefined)", "inactive"),
    ("COC(=O)c1c(NC(=O)CSc2nncs2)sc2c1CCCCC2", "active"),
    ("Cc1cc(NS(=O)(=O)c2ccccc2)no1", "inactive"),
    ("COc1ccc(-c2n[nH]c(C)c2-c2ccc(OC)c(OC)c2)c(O)c1", "active"),
    ("CCCCC(=O)Nc1ccc2c(c1)OCCO2", "active"),
    ("O=C(Nc1nnc(SCc2ccc(Cl)cc2Cl)s1)C1COc2ccccc2O1 (centres undefined)", "inactive"),
]

IN: Status in this test for C=C(C)COc1ccc(-c2n[nH]c(C)c2-c2ccccc2)c(O)c1 ?
OUT: inactive

IN: // outcome(item) with item = CCCCC(=O)Nc1ccc2c(c1)C(=O)NC2=O
OUT: inactive

IN: Query: recorded result category for O=C(CCCn1c(=O)oc2ccccc21)Nc1cccnc1 in this test
OUT: inactive

IN: In this assay, the call recorded for CSc1ccccc1C(=O)Nc1cccc(C(C)=O)c1 was what?
OUT: inactive

IN: How did this test come out for O=C(/C=C/c1ccco1)Nc1cccc(-c2nc3ccccc3[nH]2)c1 ?
OUT: inactive

IN: Assay outcome for Cn1c(=O)oc2cc(S(=O)(=O)N3CCC(C(=O)Nc4ccc(OC(F)(F)F)cc4)CC3)ccc21 : what was it?
OUT: inactive

IN: Can you look up the reported call for CCOc1cc(N2CCOCC2)c(OCC)cc1NC(=O)COC(=O)[C@H](Cc1c[nH]c2ccccc12)NC(C)=O for me?
OUT: inactive

###

# target.system: Cytochrome P450 2C19 (Homo sapiens)
# assay.explanation: blockers of cytochrome P450 2C19 activity – biochemical, luminescence, ADME assay, primary screen (AID 778);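 also: plate controls were negative control wells for no effect and 2.5 mM tranylcypromine positive control for full effect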
# applied.conditions: CYP2C19 Supersomes, luciferin-H EGE luminescence, 30 min; at 5 µM; active compounds read high
In all, about 96,000 compounds went through this assay and about 20,000 (21%) were called active. The list is a sample of the results.
metric: inhibition (%)
# number only, unit % dropped from output

Below are worked cases with known answers.
# molecule, result.units, value.reported
records = [
    ("O=c1onc(-c2cccs2)n1Cc1ccccc1", "%", 79.9),
    ("COc1ccccc1NC(=O)CN1CCN(S(=O)(=O)c2ccc(Br)cc2)CC1", "%", 34),
    ("CCOc1ccccc1NC(=O)c1cc(S(=O)(=O)N2CCC3(CC2)OCCO3)ccc1F", "%", 9.8),
    ("O=C(CN1CCN(S(=O)(=O)c2ccc(F)cc2)CC1)Nc1ccccc1F", "%", 57.1),
    ("CCOc1ccccc1NC(=O)CCN1CCN(S(=O)(=O)c2ccc(OC)cc2)CC1", "%", 68.5),
    ("O=C(Nc1ccc(S(=O)(=O)N2CCCCC2)cc1)c1cnccn1", "%", 9.9),
    ("COc1ccc(CCNC(=O)CN2CCC(n3nnc4cc(F)ccc43)CC2)cc1OC", "%", 22.7),
    ("O=c1[nH]c(-c2cccs2)nc2ccccc12", "%", 1.4),
    ("O=C(CSc1nnc(-c2cccs2)n1Cc1ccccc1)N1CCc2ccccc2C1", "%", 31.9),
]

Item COc1ccc(S(=O)(=O)N2CCCC(C(=O)Nc3ccc(NC(=O)c4ccccn4)cc3)C2)cc1 (stereo not given) was tested on Cytochrome P450 2C19 (Homo sapiens); the reported inhibition is 20.8

###

# target.system: Cytochrome P450 2C19 (Homo sapiens)
# assay.explanation: blockers of cytochrome P450 2C19 activity – biochemical, luminescence, ADME assay, primary screen (AID 778);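 also: plate controls were negative control wells for no effect and 2.5 mM tranylcypromine positive control for full effect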
# applied.conditions: CYP2C19 Supersomes, luciferin-H EGE luminescence, 30 min; at 5 µM; active compounds read high
Out of some 96,000 compounds screened, about 20,000 (21%) were called active. Only a sample is shown.
metric: inhibition (%)
Numeric answer only, unit % assumed.

# count of solved cases: 5
# compound, result.units, inhibition
data = [
    ("CN1CCN(CC(O)COCc2ccc3c(c2)OCO3)CC1 (stereo unspecified)", "%", -20.9),
    ("CCOc1ccc2nc(NCCNS(=O)(=O)c3ccccc3)c(C#N)cc2c1", "%", 24.6),
    ("Cc1cc(C(=O)CSc2nc(N)cc(=O)[nH]2)c(C)n1CCc1ccc(Cl)cc1", "%", 37),
    ("CCOc1ccc(S(=O)(=O)NCCSc2ccccc2)cc1", "%", 98.7),
    ("CCOCCCNS(=O)(=O)Cc1ccccc1", "%", 42.5),
]

# evaluate next
inhibition for CC(C)(C)n1c(=O)[nH]c2c(c1=O)CCC2 is -16.7

###

# target.system: Cytochrome P450 2C19 (Homo sapiens) (UniProt P33261)
# assay.explanation: blockers of cytochrome P450 2C19 activity – biochemical, luminescence, ADME assay, primary screen (AID 778);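 also: plate controls were negative control wells for no effect and 2.5 mM tranylcypromine positive control for full effect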
# applied.conditions: CYP2C19 Supersomes, luciferin-H EGE luminescence, 30 min; at 5 µM; active compounds read high
Among all 96,000 compounds or so, about 20,000 (21%) were called active. Only a sample is shown.
Use 10% as the dividing line for inhibition, with the line itself on the Yes side and lower values as No.

Reference set (6 entries):
# molecule, label.class
records = [
    ("OCCN1CCOCCOCCN(CCO)CCN(CCO)CC1", "Yes"),
    ("O=C(CN1C(=O)NC2(CCCC2)C1=O)Nc1ccc(F)c(F)c1F", "No"),
    ("COc1ccc(-c2nnc(SC(C)C#N)o2)cc1 (stereo not drawn)", "Yes"),
    ("CS(=O)(=O)N(Cc1ccc(Cl)cc1)c1ccc(C(=O)NCCSCc2ccco2)cc1", "No"),
    ("Cc1cc(C)cc(NC(=O)N2CCC(NC(=O)c3ccc(F)cc3)CC2)c1", "No"),
    ("c1ccc(Cc2nn3c(Cn4cnc5ccccc54)nnc3s2)cc1", "Yes"),
]

IN: Exam item: decide whether the reported inhibition for CCC1(CC)NC(=O)N(CC(=O)OCC(=O)Nc2ccc(C(F)(F)F)cc2)C1=O is at least 10%.
OUT: No

IN: Hello, I need to know if Cc1cccc(Nc2ccccc2C(=O)NCc2ccco2)c1C has measured inhibition not below 10%. Thanks!
OUT: Yes

IN: # bool: inhibition of Cc1[nH]n(-c2cccc(Cl)c2)c(=O)c1/C=N/n1c(C)nc2ccccc2c1=O >= 10%
OUT: Yes

All figures here come from PubChem BioAssay AID778.
